Experiment: NCI Yeast Anticancer Drug Screen. Data for the rad50 strain (AID 155)
Conditions: S. cerevisiae rad50 strain growth inhibition; at 50.0 µM (retest, dose inferred, filed as 5.0)
About 79,000 compounds went through this panel and 15% of them were active in at least one assay; those are over-represented in the sample as a whole. Activity calls are given as the source filed them. No stated cut-off is given here; in the data, active means growth inhibition above about 70%; inactive means the rest.
Thanks in advance; please answer with one of these: yes for active, no for inactive

As a guide, the following entries are already answered.
> print(dat)
                                   compound  class.name
1   O=C1CN(CCN2CCOCC2)CC(=O)N2Cc3ccccc3CN12          no
2  CCc1ccc(N(C(C)=O)C2=C(Cl)C(=O)c3ccccc3C2=O)cc1         yes
3  CN(C)CCOC1OCN(C)CC1(C)C (stereo not drawn)          no
4            CC(C)[CH2][Ge]([Cl])([Cl])[Cl]          no
5            CCCCN(CCCC)C(=O)c1ccc(Cl)cc1Cl         yes
6     COc1ccc(/C(C#N)=C(/N)SCc2ccccc2Cl)cc1          no

Data request: // outcome(item) with item = CCCCCCCCCCCCCCNC(=O)CCC(NC(=O)c1ccc(N(C)Cc2cnc3nc(N)nc(N)c3n2)cc1)C(=O)NCCCCCCCCCCCCCC (stereo not drawn)
Data returned: yes

Data request: Please let me know the test result on file for OC(CN1CCc2ccccc2C1)c1ccc2ccccc2c1 (stereo not drawn) .
Data returned: no

Data request: What outcome does the record of this test show for N=c1c2ccccc2cc2c3ccccc3ccn12 ?
Data returned: yes

Data request: GET /call?item= O=Cc1ccc2cc(Cl)ccc2n1 returns the recorded outcome of this test.
Data returned: no

Data request: What is the recorded call for this compound in the test? C1CCC2[N-]CC3CCCCC3[N-]CC3CCCCC3[N-]CC3CCCCC3[N-]CC2C1.[Cl][Fe]([Cl])([Cl])[Cl].[Fe+6] (stereo not drawn)
Data returned: yes

Data request: Tell me the recorded outcome of this test for COc1ccc(/C=C2/C(=O)N(C(=O)c3ccccc3O)N=C2C)cc1OC .
Data returned: no

Data request: What was the test verdict on CSc1cc2c(cc1N)Cc1cc(F)ccc1-2 ?
Data returned: yes
